Hello, the source for this data is patent US12295938B2, in case you need it.

# Test system: AR-V7 transcriptional activity
# assayOverview: MMTV-LUC luciferase reporter assay in 22RV1 cells, DHT− (screening and IC50)
# Assay type: cell-based
# testConditions: Homo sapiens; 22RV1 cells, 10 uM, no DHT; control = 100
Counter-ions that a name gives are not always drawn.
readout: activity at 10 µM

1) COC(=O)c1c2c(c3ccccc3c1O)OC(C)(C)C=C2 [Mollugin]
94.7%
2) C=C1[C@@H](O)[C@]2(O)OC[C@]34[C@H]2[C@@]2(C)[C@H](O)C(=O)C=C(C)[C@@H]2C[C@H]3OC(=O)[C@H](O)[C@@]14O [Eurycomanone]
17.7%
3) COC1=C[C@@H](C)[C@@H]2C[C@H]3OC(=O)C[C@H]4C(C)=C(OC)C(=O)[C@H]([C@@]2(C)C1=O)[C@@]34C [Quassin]
110%
4) CCN(CC)Cc1cc(Nc2ccnc3cc(Cl)ccc23)ccc1O [Amodiaquine dihydrochloride dihydrate]
91.6%
5) COC(=O)[C@@]12OC[C@]34[C@H]([C@@H](O)[C@@H]1O)[C@@]1(C)CC(=O)C(O)=C(C)[C@@H]1C[C@H]3OC(=O)[C@H](OC(=O)CC(C)C)[C@@H]24 [Bruceine A, bruceine A]
11%
6) C=C1CC[C@@H]2[C@](C)(CO)[C@H](O)CC[C@@]2(C)[C@@H]1C/C=C1/C(=O)OC[C@H]1O [Andrographolide]
157%

====

# Test system: AR transcriptional activity
# assayOverview: MMTV-LUC luciferase reporter assay in 22RV1 cells, DHT+ (screening and IC50)
# Type: cell-based
# testConditions: Homo sapiens, 10 uM, with DHT, control = 100
Please mark 1 if the recorded activity at 10 µM is equal to or greater than 60%, and -1 if it falls below.

1. COC(=O)[C@]12OC[C@]34[C@H]([C@@H](O)[C@@H]1O)[C@@]1(C)CC(=O)C(O)=C(C)[C@@H]1C[C@H]3OC(=O)[C@H](OC(=O)/C=C(\C)C(C)(C)OC(C)=O)[C@@H]24 [Bruceantinol]
-1
2. COC(=O)[C@@]12OC[C@]34[C@H]([C@@H](O)[C@@H]1O)[C@@]1(C)CC(=O)C(O)=C(C)[C@@H]1C[C@H]3OC(=O)[C@H](OC(=O)C=C(C)C)[C@@H]24 [Brusatol, brusatol]
-1
3. CC1CCCCCC(=O)c2c(O)cc(O)cc2CC(=O)O1 (stereo not drawn) [Curvularin]
1
4. C[C@H]1COC2=C1C(=O)C(=O)c1c2ccc2c1CCCC2(C)C [Cryptotanshinone]
1
5. C=C1CC[C@@H]2[C@](C)(CO)[C@H](O)CC[C@@]2(C)[C@@H]1C/C=C1/C(=O)OC[C@H]1O [Andrographolide]
1
6. COC1=C[C@@H](C)[C@@H]2C[C@H]3OC(=O)C[C@H]4C(C)=C(OC)C(=O)[C@H]([C@@]2(C)C1=O)[C@@]34C [Quassin]
1

====

# Tested on: AR-V7 transcriptional activity
# assayOverview: MMTV-LUC luciferase reporter assay in 22RV1 cells, DHT− (screening and IC50)
# Assay type: cell-based
# testConditions: 22RV1 cells, 1 uM, no DHT; control = 100
Reported values of MMTV-LUC activity (%) DHT− for individual entries
readout: MMTV-LUC activity (%) DHT−

1. CC(C)=CC[C@H](OC(=O)C=C(C)C)C1=CC(=O)c2c(O)ccc(O)c2C1=O [β, β-Dimethylacrylalkannin]
100.2
2. COC(=O)[C@]12OC[C@]34[C@H]([C@@H](O)[C@@H]1O)[C@@]1(C)C=C(O[C@@H]5O[C@H](CO)[C@@H](O)[C@H](O)[C@H]5O)C(=O)[C@@H](C)[C@@H]1C[C@H]3OC(=O)[C@H](OC(=O)/C=C(\C)C(C)(C)O)[C@@H]24 [Yadanzioside C]
118.9
3. COC(=O)[C@]12OC[C@]34[C@H]([C@@H](O)[C@@H]1O)[C@@]1(C)C=C(O[C@@H]5O[C@H](CO)[C@@H](O)[C@H](O)[C@H]5O)C(=O)[C@@H](C)[C@@H]1C[C@H]3OC(=O)[C@H](OC(=O)/C=C(\C)C(C)C)[C@@H]24 [Bruceantinoside A]
11.5
4. CC1CCCC=CC(=O)c2c(O)cc(O)cc2CC(=O)O1 (stereo not shown) [10,11-Dehydrocurvularin]
383.1
5. CC1=CC(=O)[C@@H](O)[C@]2(C)[C@H]3[C@@H](O)[C@H](O)[C@]4(C)OC[C@@]35[C@@H](C[C@@H]12)OC(=O)[C@H](O)[C@]54O [Bruceine D]
7.0
6. CC1=CC(=O)[C@@H](O)[C@]2(C)[C@H]3[C@@H](O)[C@H](O)[C@]4(CO)OC[C@@]35[C@@H](C[C@@H]12)OC(=O)[C@H](O)[C@]54O [Yadanziolide A]
54.1
7. CC1=CC(=O)[C@@H](O)[C@@]2(C)[C@H]1[C@@H](O)[C@H]1OC(=O)[C@H](O)[C@]3(O)[C@]14CO[C@]3(CO)[C@@H](O)[C@H](O)[C@H]24 [Yadanziolide B]
7.2
